Hey, just so you know, these numbers are from the Immune Epitope Database (IEDB).

Biological target: HLA-B*15:03
Assay: IEDB peptide-MHC binding, purified MHC/competitive/radioactivity; filed as Kd, often an IC50 or EC50 that approximates it; bounds were set here for any values at or beyond the usual limits of such assays
Conditions: source organism: Vaccinia virus WR
observation.type: Kd

Incoming: Data request, read-out Kd, for RSKDTHVFA
Outgoing: 182 nM

Incoming: Please give the result for RKNHIYNSF too.
Outgoing: 0.132 nM

Incoming: And what about the sequence ANVNARNRF ?
Outgoing: 552 nM

Incoming: Do the same for IMFAKTLDF please
Outgoing: 0.311 nM

* * *

Biological target: HLA-A*02:01
Assay: IEDB peptide-MHC binding, purified MHC/direct/fluorescence; filed as Kd, often an IC50 or EC50 that approximates it; bounds were set here for any values at or beyond the usual limits of such assays
Conditions: source organism: Yersinia pestis
observation.type: Kd (nM)
Return type: number; implicit unit nM.

Incoming: Tell me the measured Kd of LLAALFHDI , please.
Outgoing: 85
